We begin with a simple list: items and their reported residual activity.
- experimental-target: CAMK1 (human) (UniProt Q14012)
- Sequence (Q14012 whole entry, looked up): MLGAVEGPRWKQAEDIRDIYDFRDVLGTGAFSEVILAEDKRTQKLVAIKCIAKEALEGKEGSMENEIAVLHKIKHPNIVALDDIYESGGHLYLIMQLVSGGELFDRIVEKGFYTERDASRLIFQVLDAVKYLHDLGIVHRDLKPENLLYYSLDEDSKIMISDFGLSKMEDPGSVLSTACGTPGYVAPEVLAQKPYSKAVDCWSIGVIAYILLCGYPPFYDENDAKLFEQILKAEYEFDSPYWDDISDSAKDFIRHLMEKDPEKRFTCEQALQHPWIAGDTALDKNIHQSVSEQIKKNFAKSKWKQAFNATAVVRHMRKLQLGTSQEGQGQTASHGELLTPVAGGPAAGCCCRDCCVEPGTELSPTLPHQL
- test-description: radiometric filter-binding kinase assay, Kinase HotSpot
- measurement-parameters: compound 0.5 µM; ATP 10 µM
Record the value in %, omitting the unit from your answer.

Any idea what residual activity was measured for O=S(=O)(NCCNC/C=C/c1ccc(Br)cc1)c1cccc2cnccc12 ?
107

Entry to check: Nc1ncnc2c1cnn2-c1ccccc1
97.5

What about this molecule? O=c1c(-c2ccc(F)cc2)c(-c2ccncc2)[nH]n1-c1ccc(Cl)cc1
94.4

Moving on to COc1cc2c(Nc3ccc(Br)cc3F)ncnc2cc1OCC1CCN(C)CC1
81.6

Please answer likewise for O=C(c1ccccc1)c1ccc(N2CCOCC2)cc1O
97.5

Moving on to COc1cc2c(cc1OC)-c1[nH]nc(Nc3cccc(F)c3)c1C2
98.4

Subsequent entry: N#Cc1c(NC(=O)c2cccc3ccccc23)sc2c1CCCC2
108

Similarly, c1ccc(-c2cnc(Nc3ccc(OCCN4CCCC4)cc3)s2)cc1 ?
86.3

Cool, now Cc1cc(Nc2nc(-c3ccccc3)nc3ccccc23)n[nH]1
93.1

Note, next up: CCc1nc(-c2ccc(OC)cc2)[nH]c1-c1ccncc1
108

Check O=c1[nH]c2ccccc2n1C1CCN(Cc2ccc(-c3nc4cc5[nH]cnc5cc4nc3-c3ccccc3)cc2)CC1 too.
95.1

----------
- experimental-target: ITK (human)
- test-description: radiometric filter-binding kinase assay, Kinase HotSpot
- measurement-parameters: compound 0.5 µM; ATP 10 µM
measured-endpoint: residual activity
Lab note: write values as number then unit, every time.

Known residual activity results, listed for orientation:
molecular-string: COc1cc2c(N3CCN(C(=O)Nc4ccc(OC(C)C)cc4)CC3)ncnc2cc1OCCCN1CCCCC1
measured-endpoint: residual activity
value-observed: 99%
//
molecular-string: CN[C@@H]1C[C@H]2O[C@@](C)([C@@H]1OC)n1c3ccccc3c3c4c(c5c6ccccc6n2c5c31)C(=O)NC4
measured-endpoint: residual activity
value-observed: 2.89%
//
molecular-string: N#Cc1c(NC(=O)c2cccc3ccccc23)sc2c1CCCC2
measured-endpoint: residual activity
value-observed: 101%
//
molecular-string: COc1cc2c(cc1OC)-c1[nH]nc(Nc3cccc(F)c3)c1C2
measured-endpoint: residual activity
value-observed: 85.5%

# next compound below
Tell me reported residual activity for Nc1ncnc2c1cnn2-c1ccccc1 , tested with ITK (human).
92.7%

----------
- experimental-target: CSF1R (human) (UniProt P07333)
- Sequence (P07333 whole entry, looked up): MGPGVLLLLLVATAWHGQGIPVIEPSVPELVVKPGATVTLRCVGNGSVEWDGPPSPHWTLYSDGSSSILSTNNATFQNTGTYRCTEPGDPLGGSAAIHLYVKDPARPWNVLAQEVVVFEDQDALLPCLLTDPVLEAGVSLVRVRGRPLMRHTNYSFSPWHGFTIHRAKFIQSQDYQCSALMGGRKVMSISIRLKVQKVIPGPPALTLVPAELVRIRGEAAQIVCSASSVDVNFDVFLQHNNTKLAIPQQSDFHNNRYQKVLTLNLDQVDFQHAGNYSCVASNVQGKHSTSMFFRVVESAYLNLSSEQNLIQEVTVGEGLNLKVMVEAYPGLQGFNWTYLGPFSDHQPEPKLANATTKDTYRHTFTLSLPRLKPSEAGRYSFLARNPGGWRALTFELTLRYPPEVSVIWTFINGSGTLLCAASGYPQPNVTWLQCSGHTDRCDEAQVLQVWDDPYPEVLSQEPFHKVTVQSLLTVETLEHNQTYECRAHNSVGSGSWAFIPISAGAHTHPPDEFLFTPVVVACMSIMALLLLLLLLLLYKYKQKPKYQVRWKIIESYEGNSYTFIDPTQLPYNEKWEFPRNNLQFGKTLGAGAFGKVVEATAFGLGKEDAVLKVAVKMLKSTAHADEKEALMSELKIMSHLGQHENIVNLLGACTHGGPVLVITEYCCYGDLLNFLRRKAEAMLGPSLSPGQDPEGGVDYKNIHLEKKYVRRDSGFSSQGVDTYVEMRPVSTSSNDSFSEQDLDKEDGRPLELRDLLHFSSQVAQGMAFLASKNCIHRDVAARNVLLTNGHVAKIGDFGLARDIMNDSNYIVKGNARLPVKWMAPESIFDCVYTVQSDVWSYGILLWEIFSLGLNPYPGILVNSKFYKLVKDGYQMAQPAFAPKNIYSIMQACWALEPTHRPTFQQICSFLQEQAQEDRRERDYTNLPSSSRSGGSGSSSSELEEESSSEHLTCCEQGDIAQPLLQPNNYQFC
- test-description: radiometric filter-binding kinase assay, Kinase HotSpot
- measurement-parameters: compound 0.5 µM; ATP 10 µM
A collection of compounds and their measured residual activity
Field: numeric (%). Do not append units.

molecular-string: c1ccc(-c2cnc(Nc3ccc(OCCN4CCCC4)cc3)s2)cc1
units: %
value-observed: 38.4
//
molecular-string: O=c1[nH]c2ccccc2n1C1CCN(Cc2ccc(-c3nc4cc5[nH]cnc5cc4nc3-c3ccccc3)cc2)CC1
units: %
value-observed: 97
//
molecular-string: N#Cc1c(NC(=O)c2cccc3ccccc23)sc2c1CCCC2
units: %
value-observed: 97.2
//
molecular-string: O=C1NC(=O)c2cc(Nc3ccc(F)cc3)c(Nc3ccc(F)cc3)cc21
units: %
value-observed: 104
//
molecular-string: CCc1nc(-c2ccc(OC)cc2)[nH]c1-c1ccncc1
units: %
value-observed: 100
//
molecular-string: O=c1c2ccccc2[nH]c(=S)n1CCN1CCC(=C(c2ccc(F)cc2)c2ccc(F)cc2)CC1
units: %
value-observed: 102
//
molecular-string: O=c1cc(N2CCOCC2)oc2c(-c3ccccc3)cccc12
units: %
value-observed: 98.3
//
molecular-string: Nc1ncnc2c1cnn2-c1ccccc1
units: %
value-observed: 105

I would be grateful if you could share the reported residual activity for O=C1NC(=O)c2c1c1c3ccccc3[nH]c1c1[nH]c3cc(Br)ccc3c21 .
96

Please give the result for N/C(=N\N=C/c1ccc(-c2cccc([N+](=O)[O-])c2)o1)N[N+](=O)[O-] too.
94.5

Ok, now O=c1c(-c2ccc(F)cc2)c(-c2ccncc2)[nH]n1-c1ccc(Cl)cc1
102

Now consider Cn1cc(/C=C2\C(=O)Nc3ccc(S(N)(=O)=O)cc32)c2ccccc21 and answer again.
82.5

Same question for N#CCCc1ccc2c(c1)-c1[nH]c3ccc([N+](=O)[O-])cc3c1CC(=O)N2 please.
43.4

Cc1cc(Nc2nc(-c3ccccc3)nc3ccccc23)n[nH]1 ?
33.1

What about CCCCc1c(-c2ccc(O)cc2)[nH]c2nccnc12 ?
38.4

Another compound to check: CCOc1cc2ncnc(Nc3cccc(Br)c3)c2cc1OCC
87.6

Try O=S(=O)(NCCNC/C=C/c1ccc(Br)cc1)c1cccc2cnccc12 next.
97.7

Item: FC(F)(F)c1ccc(/C=C/c2nc(COc3ccc(CCCCn4ccnn4)cc3)co2)cc1
103

Next compound up: COc1cc2c(cc1OC)-c1[nH]nc(Nc3cccc(F)c3)c1C2
20

What do you get for O=C(c1ccccc1)c1ccc(N2CCOCC2)cc1O ?
99.7

Request: COc1cc2ncnc(Nc3ccc(O)c(Br)c3)c2cc1OC
95.3

What would you report for COc1cccc(-c2cc(=O)c3ccccc3o2)c1N ?
101

Subsequent entry: N#C/C(=C1/Nc2ccccc2S1)c1ccnc(NCCc2cccnc2)n1
99.2

Another compound to look at: O=C(O)c1ccc2c3c1cccc3c(=O)n1c3ccccc3nc21
104

----------
The entries below are paired with their reported residual activity.
- experimental-target: KDR (human) (UniProt P35968)
- Sequence (P35968 whole entry, looked up): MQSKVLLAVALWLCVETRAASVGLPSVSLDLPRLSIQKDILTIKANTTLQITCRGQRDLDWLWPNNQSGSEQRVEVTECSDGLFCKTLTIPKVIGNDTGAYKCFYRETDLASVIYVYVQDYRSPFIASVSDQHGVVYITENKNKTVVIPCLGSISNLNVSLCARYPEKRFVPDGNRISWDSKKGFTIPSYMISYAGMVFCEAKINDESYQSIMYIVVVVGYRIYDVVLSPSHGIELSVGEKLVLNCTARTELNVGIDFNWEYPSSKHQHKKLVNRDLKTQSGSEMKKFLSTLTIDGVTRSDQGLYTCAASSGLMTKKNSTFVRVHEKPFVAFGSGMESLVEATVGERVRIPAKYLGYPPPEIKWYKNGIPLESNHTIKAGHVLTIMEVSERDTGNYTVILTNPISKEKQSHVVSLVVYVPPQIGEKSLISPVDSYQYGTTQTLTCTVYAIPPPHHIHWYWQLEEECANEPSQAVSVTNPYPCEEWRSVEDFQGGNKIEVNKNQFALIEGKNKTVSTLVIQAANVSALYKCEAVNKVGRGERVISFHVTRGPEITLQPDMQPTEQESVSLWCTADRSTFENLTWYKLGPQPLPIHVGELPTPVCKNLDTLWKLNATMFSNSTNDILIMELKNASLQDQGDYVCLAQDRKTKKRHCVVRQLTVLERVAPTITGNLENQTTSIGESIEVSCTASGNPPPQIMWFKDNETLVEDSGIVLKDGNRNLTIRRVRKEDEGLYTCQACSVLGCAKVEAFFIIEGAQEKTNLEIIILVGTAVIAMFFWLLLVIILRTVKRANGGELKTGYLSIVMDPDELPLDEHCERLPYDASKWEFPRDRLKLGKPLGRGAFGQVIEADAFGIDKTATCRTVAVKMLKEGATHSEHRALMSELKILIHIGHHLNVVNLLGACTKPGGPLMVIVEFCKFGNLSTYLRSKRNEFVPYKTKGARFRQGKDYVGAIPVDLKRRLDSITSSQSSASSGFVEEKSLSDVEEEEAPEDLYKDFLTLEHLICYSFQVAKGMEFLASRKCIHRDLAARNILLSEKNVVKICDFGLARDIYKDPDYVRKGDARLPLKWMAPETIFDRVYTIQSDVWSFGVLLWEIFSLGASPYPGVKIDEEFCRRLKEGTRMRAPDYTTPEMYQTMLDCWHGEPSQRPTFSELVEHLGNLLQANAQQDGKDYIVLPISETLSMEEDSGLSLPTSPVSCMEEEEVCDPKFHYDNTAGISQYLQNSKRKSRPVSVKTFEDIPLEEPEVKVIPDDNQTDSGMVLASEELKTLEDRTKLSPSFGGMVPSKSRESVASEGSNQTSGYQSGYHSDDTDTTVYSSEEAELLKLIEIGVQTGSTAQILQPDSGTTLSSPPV
- test-description: radiometric filter-binding kinase assay, Kinase HotSpot
- measurement-parameters: compound 0.5 µM; ATP 10 µM
Report only the number, with the unit % understood.

Examples from the recorded data:
molecular-string: COc1cccc(-c2cc(=O)c3ccccc3o2)c1N
units: %
residual activity: 81.3
//
molecular-string: CCOc1cc2ncnc(Nc3cccc(Br)c3)c2cc1OCC
units: %
residual activity: 92

Now examine the next entry.
Query: residual activity; subject: O=S(=O)(NCCNC/C=C/c1ccc(Br)cc1)c1cccc2cnccc12
79.1

----------
- experimental-target: CSNK1G2 (human)
- test-description: radiometric filter-binding kinase assay, Kinase HotSpot
- measurement-parameters: compound 0.5 µM; ATP 10 µM
A collection of compounds and their measured residual activity
Dear colleague, please return just the value in %, with no unit written.

molecular-string: CCOc1cc2ncnc(Nc3cccc(Br)c3)c2cc1OCC
residual activity / %: 103
//
molecular-string: O=C(c1ccccc1)c1ccc(N2CCOCC2)cc1O
residual activity / %: 96.1
//
molecular-string: O=C(O)c1ccc2c3c1cccc3c(=O)n1c3ccccc3nc21
residual activity / %: 93.5
//
molecular-string: COc1cc2c(N3CCN(C(=O)Nc4ccc(OC(C)C)cc4)CC3)ncnc2cc1OCCCN1CCCCC1
residual activity / %: 95.5
//
molecular-string: O=c1c2ccccc2[nH]c(=S)n1CCN1CCC(=C(c2ccc(F)cc2)c2ccc(F)cc2)CC1
residual activity / %: 98.6
//
molecular-string: O=c1c(-c2ccc(F)cc2)c(-c2ccncc2)[nH]n1-c1ccc(Cl)cc1
residual activity / %: 93.8

Fill in the blank: the reported residual activity of CCCCc1c(-c2ccc(O)cc2)[nH]c2nccnc12 is ____.
78.5

----------
- experimental-target: MST4 (human) (UniProt Q9P289)
- Sequence (Q9P289 whole entry, looked up): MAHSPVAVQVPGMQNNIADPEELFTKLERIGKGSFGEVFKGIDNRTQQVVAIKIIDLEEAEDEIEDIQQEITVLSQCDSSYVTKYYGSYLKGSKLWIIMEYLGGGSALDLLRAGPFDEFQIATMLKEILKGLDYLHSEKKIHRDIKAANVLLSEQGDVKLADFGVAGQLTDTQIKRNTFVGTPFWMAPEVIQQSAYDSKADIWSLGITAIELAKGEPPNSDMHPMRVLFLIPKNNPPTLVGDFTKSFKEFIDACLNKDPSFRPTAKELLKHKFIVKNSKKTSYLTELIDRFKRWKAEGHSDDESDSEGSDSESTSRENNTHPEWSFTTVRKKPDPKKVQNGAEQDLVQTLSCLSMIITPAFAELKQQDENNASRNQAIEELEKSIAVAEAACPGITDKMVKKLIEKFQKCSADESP
- test-description: radiometric filter-binding kinase assay, Kinase HotSpot
- measurement-parameters: compound 0.5 µM; ATP 10 µM
measured-endpoint: residual activity (%)
Give a bare numeral; the unit % is implied.

molecular-string: CCc1nc(-c2ccc(OC)cc2)[nH]c1-c1ccncc1
units: %
residual activity: 106
--
molecular-string: COc1cccc(-c2cc(=O)c3ccccc3o2)c1N
units: %
residual activity: 110
--
molecular-string: O=c1[nH]c2ccccc2n1C1CCN(Cc2ccc(-c3nc4cc5[nH]cnc5cc4nc3-c3ccccc3)cc2)CC1
units: %
residual activity: 102
--
molecular-string: O=C1NC(=O)c2c1c1c3ccccc3[nH]c1c1[nH]c3cc(Br)ccc3c21
units: %
residual activity: 80.5

Which residual activity is reported for this compound? c1ccc(-c2cnc(Nc3ccc(OCCN4CCCC4)cc3)s2)cc1
101

Try N#Cc1c(NC(=O)c2cccc3ccccc23)sc2c1CCCC2 next.
102

Lookup Cc1cc(Nc2nc(-c3ccccc3)nc3ccccc23)n[nH]1
91.2

Can you check O=C1NC(=O)c2cc(Nc3ccc(F)cc3)c(Nc3ccc(F)cc3)cc21 next?
99

O=c1c(-c2ccc(F)cc2)c(-c2ccncc2)[nH]n1-c1ccc(Cl)cc1 ?
94.1

What do you have for COc1cc2ncnc(Nc3ccc(O)c(Br)c3)c2cc1OC ?
90.2

What about O=c1c2ccccc2[nH]c(=S)n1CCN1CCC(=C(c2ccc(F)cc2)c2ccc(F)cc2)CC1 ?
91.6

Try this compound next: CCOc1cc2ncnc(Nc3cccc(Br)c3)c2cc1OCC
94.9
